assay: Maximum concentration was determined in an aqueous sodium hydroxide solution adjusted to pH 10 at 5 mg/kg dosage administered perorally in rats; assay type: ADME, organism-based; design: dose 5 mg/kg, route oral; conditions: rat, in vivo, po
property-name: Cmax (µM)
Numbers only, in µM.

Complete the entry with Cmax for N#Cc1ccc(S(=O)(=O)Nc2cccc(C(c3c(O)c4c(oc3=O)CCCCCC4)C3CC3)c2)cc1 (stereo unspecified)
24.2

----------
assay: The half life time estimated was determined in an aqueous sodium hydroxide solution adjusted to pH 10 at 5 mg/kg dosage administered intravenously in dog; assay type: ADME, organism-based; set-up: dose 5 mg/kg, route intravenous; conditions: in vivo, iv
property-name: half-life (h)
Answers are plain numbers, in h.

Complete the entry with half-life for N#Cc1ccc(S(=O)(=O)Nc2cccc(C(c3c(O)c4c(oc3=O)CCCCCC4)C3CC3)c2)cc1 (stereo unspecified)
6.3

----------
system: Human immunodeficiency virus 1; assay: Antiviral potency of compound determined against human immunodeficiency virus type 1; assay type: functional, organism-based
For each entry below, report its IC50 value.
One number for each entry, in µM.

compound: Cc1ccc(S(=O)(=O)Nc2cccc(C(c3c(O)c4c(oc3=O)CCCCCC4)C3CC3)c2)cc1 (stereo not given)
IC50 / µM: 3.6

Batch of 3 compounds: report IC50 for each.
1. Cc1cccc(S(=O)(=O)Nc2cccc(C(c3c(O)c4c(oc3=O)CCCCCC4)C3CC3)c2)c1 (stereo not given)
2. N#Cc1ccc(S(=O)(=O)Nc2cccc(C(c3c(O)c4c(oc3=O)CCCCCC4)C3CC3)c2)cc1 (stereo not given)
3. O=c1c2c(oc(O)c1C(c1cccc(NS(=O)(=O)c3ccccc3)c1)C1CC1)CCCCCC2 (stereo not given)

1. 4
2. 1.5
3. 5

----------
assay: Bioavailability (F) was determined in an aqueous sodium hydroxide solution adjusted to pH 10 at 10 mg/kg dosage administered perorally in dog; format: ADME, organism-based; details: eutheria, in vivo, po
property-name: bioavailability (%)
One number for each entry, in %.

Complete the entry with bioavailability for N#Cc1ccc(S(=O)(=O)Nc2cccc(C(c3c(O)c4c(oc3=O)CCCCCC4)C3CC3)c2)cc1 (stereo unspecified)
76.7

----------
test: Maximum concentration was determined in an aqueous sodium hydroxide solution adjusted to pH 10 at 10 mg/kg dosage administered perorally in dog; assay type: ADME, organism-based, Canis lupus familiaris; design: dose 10 mg/kg, route oral; conditions: in vivo, po
property-name: Cmax (µM)
Answers are plain numbers, in µM.

Complete the entry with Cmax for N#Cc1ccc(S(=O)(=O)Nc2cccc(C(c3c(O)c4c(oc3=O)CCCCCC4)C3CC3)c2)cc1 (stereo unspecified)
156

----------
test: Bioavailability (F) was determined in an aqueous sodium hydroxide solution adjusted to pH 10 at 5 mg/kg dosage administered perorally in rats; format: ADME, organism-based; conditions: eutheria, in vivo, po
property-name: bioavailability (%)
Answers are plain numbers, in %.

Complete the entry with bioavailability for N#Cc1ccc(S(=O)(=O)Nc2cccc(C(c3c(O)c4c(oc3=O)CCCCCC4)C3CC3)c2)cc1 (stereo unspecified)
41.9

----------
molecular target: Human immunodeficiency virus type 1 protease (Human immunodeficiency virus 1)
property-name: Ki
Respond with a number, then the unit of measure.

compound: Cc1ccc(S(=O)(=O)Nc2cccc(C(c3c(O)c4c(oc3=O)CCCCCC4)C3CC3)c2)cc1 (stereo not drawn)
Ki: 3 nM

compound: Cc1cccc(S(=O)(=O)Nc2cccc(C(c3c(O)c4c(oc3=O)CCCCCC4)C3CC3)c2)c1 (stereo not drawn)
Ki: 5 nM

# ---- query compound ----
Look up and report measured Ki (Human immunodeficiency virus type 1 protease (Human immunodeficiency virus 1)) for the following compound: Cc1ccccc1S(=O)(=O)Nc1cccc(C(c2c(O)c3c(oc2=O)CCCCCC3)C2CC2)c1 (stereo not drawn)
9 nM
